- target_or_test_system: murine TYR (Mus musculus, UniProt P11344)
- Sequence (P11344 19-533): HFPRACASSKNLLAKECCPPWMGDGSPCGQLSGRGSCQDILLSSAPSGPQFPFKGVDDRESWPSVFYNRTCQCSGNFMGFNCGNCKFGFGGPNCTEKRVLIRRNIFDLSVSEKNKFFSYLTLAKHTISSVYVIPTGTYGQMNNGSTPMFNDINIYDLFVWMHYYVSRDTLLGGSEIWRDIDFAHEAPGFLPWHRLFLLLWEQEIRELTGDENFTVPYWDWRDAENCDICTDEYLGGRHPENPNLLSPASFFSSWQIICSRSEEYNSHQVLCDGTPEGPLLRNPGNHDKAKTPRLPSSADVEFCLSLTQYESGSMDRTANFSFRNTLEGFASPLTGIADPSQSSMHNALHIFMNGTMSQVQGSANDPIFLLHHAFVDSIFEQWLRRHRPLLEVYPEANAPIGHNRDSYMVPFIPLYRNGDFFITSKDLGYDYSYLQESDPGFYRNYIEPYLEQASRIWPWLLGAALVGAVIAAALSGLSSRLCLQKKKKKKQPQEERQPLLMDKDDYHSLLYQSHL
- measurement_protocol: In vitro TYR activity assay with lysates of murine B16/F10 cells
- Type: biochemical
- measurement_conditions: dose-response curve at low concentration range, read-out: IC50 against murine TYR
measured_property: IC50 (µM)
State just the number; it will be interpreted in µM.

Notebook: Oc1ccc(/C=C/c2cc(O)cc(O)c2)cc1 [resveratrol] , IC50 read as 4.3
